Entry source: PubChem BioAssay AID1962

Entries and their measured inhibition follow.
System: tRNA 2'-phosphotransferase TPT1 (Candida albicans SC5314)
Assay: tRNA 2'-phosphotransferase blockers, C. albicans – biochemical, fluorescence polarization, primary screen (AID 1962);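 also: plate controls were DMSO alone for no effect and ferristatin control at 100 nM for full effect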
Conditions: recombinant caTPT1, FP RNA substrate dephosphorylation; at 5 µM; hits give high values
In all, about 300,000 compounds went through this assay and about 2,500 (0.83%) were called active. Shown is part of a subset that was picked to be rich in actives.
Quick reminder: number only, in %, skip the unit.

Sample answers from the record:
compound	result.unit	inhibition
CC(=O)N/C(=C/c1ccc(Cl)cc1)C(=O)NCCc1c[nH]c2ccccc12	%	-3.35
Cc1ccc(CNC(=O)c2cc(-c3ccccc3C)n(CC3CC(c4cccc([N+](=O)[O-])c4)=NO3)n2)cc1 (stereo unspecified)	%	-1.39
COc1cc(N=Cc2c(O)[nH]c3ccccc23)cc(OC)c1OC	%	-0.99
O=C(C1CCCO1)N1CCN(C(=S)NC2CC2)CC1 (stereo unspecified)	%	-3.35
CCOc1cc(/C=C(\C#N)c2nc(-c3cccs3)c(NC(C)=O)s2)ccc1O	%	111
Cc1[nH]c(C)c(S(=O)(=O)N2CCN(c3cccc(C(F)(F)F)c3)CC2)c1C(=O)N1CCCCC1	%	-0.13
CN=C(c1ccccc1)c1c(C)cccc1C	%	-0.46
N#C/C(=C/c1ccc(N2CCCCC2)o1)C(=O)NCCc1c[nH]c2ccccc12	%	178

Ask | Provide only the value of recorded inhibition for `CCn1c(-c2cc(OC)ccc2OC)csc1=Nc1c(C)n(C)n(-c2ccccc2)c1=O`
Reply | -1.13

Ask | State, in one line, measured inhibition of Cc1nc(-c2ccc(Cl)cc2)sc1C1(C)CC(c2ccccc2F)=NO1 (stereo unspecified)
Reply | 1.26

Ask | Output inhibition of `CN1C(=O)/C(=C/C=C2\SCCN2C)OC1=S`
Reply | 124

* * *

Tested on: tRNA 2'-phosphotransferase TPT1 (Candida albicans SC5314)
Assay: tRNA 2'-phosphotransferase blockers, C. albicans – biochemical, fluorescence polarization, primary screen (AID 1962);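 also: plate controls were DMSO alone for no effect and ferristatin control at 100 nM for full effect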
Details: recombinant caTPT1, FP RNA substrate dephosphorylation; at 5 µM; hits give high values
Out of some 300,000 compounds screened, about 2,500 (0.83%) were called active. The entries come from a sample that favours actives as a whole.
# reported inhibition; entries follow
A number alone suffices; assume %.

molecule	experimental.system	result.unit	recorded.value
Cc1nn(C(C)CC(=O)O)c(C)c1C (centres undefined)	tRNA 2'-phosphotransferase TPT1 (Candida albicans SC5314)	%	0.87
O=C(NC(Cc1ccc(O)cc1)C(=O)O)/C(=C/c1ccccc1)NC(=O)c1ccccc1 (centres undefined)	tRNA 2'-phosphotransferase TPT1 (Candida albicans SC5314)	%	-2.71
CC(C)NS(=O)(=O)c1ccc(NC(=O)c2cccnc2)cc1	tRNA 2'-phosphotransferase TPT1 (Candida albicans SC5314)	%	6.23
N#CC1=C(N)Oc2c(ccc3cccnc23)C1c1ccncc1 (centres undefined)	tRNA 2'-phosphotransferase TPT1 (Candida albicans SC5314)	%	0.31

Ask | Return inhibition (reported value) for this molecule: CCC(C)Sc1nc(C)nc2c1c(=O)n(C)c(=O)n2C (centres undefined)
Reply | -1.63

Ask | Check the records and state inhibition for `NS(=O)(=O)c1ccc(-c2ccc(/C=C3\SC(=O)NC3=O)o2)cc1`
Reply | 0.01

Ask | Quote inhibition reported for `CCOc1ccc(N=Cc2c(O)n(-c3cccc(C)n3)c(=O)c3ccccc23)cc1` please.
Reply | 1.89

Ask | Dear colleague, please send me the reported inhibition for `O=C1Nc2ccccc2/C1=C/c1ccnc2ccccc12` when you can.
Reply | -1.13

Ask | Could you please provide reported inhibition for CC(NC(=S)Nc1ccccc1)C(c1cccs1)N1CCOCC1 (centres undefined) ? Thanks!
Reply | -0.68

Ask | Provide only the value of recorded inhibition for `Cc1ccc(C)c2[nH]c(=O)c(CCNC(=O)CC(C)C)cc12`
Reply | 51.6

Ask | Note inhibition for the molecule shown: `N#C/C(=C\c1ccc(-c2cccc([N+](=O)[O-])c2)o1)C(=O)NCCN1CCOCC1`
Reply | 0.6

Ask | Please report inhibition for the following molecule: CCN(CC)P(=O)(Nc1ccc(SC(F)F)cc1)c1ccc(N(C)C)cc1NC(=O)c1ccco1 (centres undefined)
Reply | -3.15
